Test system: Apis mellifera
Assay: Inhibition of bee venom sPLA2 at 10 uM
PROPERTY MEASURED: inhibition

Query :: Fill blank: measured inhibition of the compound CC1=C(CC/C(C)=C/CCC2=CC[C@H](C3=CC(=O)OC3O)O[C@@H]2O)C(C)(C)CCC1 (some centres not stated) [MANOLIDE] is ____.
Result :: 62.5%

Query :: Data request, read-out inhibition, for CC1(C)CCC[C@@]2(C)C1CC[C@@]1(C)c3cc[n+](CCS(=O)(=O)O)cc3CCC21 (some centres not stated)
Result :: 37.6%

Query :: So what's the measured inhibition for this one? C[C@]1(CO)CCC[C@]2(C)[C@H]3CC[C@@H]4C(O)O[C@@H](C5=CC(=O)OC5O)C[C@H]4[C@]3(C)CC[C@H]12 (some centres not stated) [PETROSASPONGIOLIDE P]
Result :: 5.4%

Query :: If you can, please state the reported inhibition value of CC1(C)CCC[C@@]2(C)C1CC[C@@]1(C)c3cc(CCC(=O)O)[n+](CC(=O)O)cc3CCC21.[Cl-] (some centres not stated) .
Result :: 36.2%

Query :: inhibition for C[C@]1(CO)CCC[C@]2(C)[C@H]3CC[C@@H]4C=C(CC(=O)O)C(=O)C[C@H]4[C@]3(C)CC[C@H]12 [PETROSASPONGIOLIDE K] ?
Result :: 37.1%

Query :: Reported inhibition, compound CC1(C)CCC[C@@]2(C)C1CC[C@@]1(C)c3cc[n+](CC(=O)O)cc3CCC21.[Cl-] (some centres not stated) : ____
Result :: 33.1%

Query :: Fill in the blank: the reported inhibition of CC(=O)OC[C@@]1(C)CCC[C@@]2(C)C1CC[C@@]1(C)c3cc[n+](CC(=O)O)cc3CCC21 (some centres not stated) is ____.
Result :: 32.2%

====

Species: Homo sapiens
Assay: Inhibition of human synovial sPLA2 at 10 uM
Consider the following compounds; for each one, report its inhibition.
Output spec: scalar in %, unitless text.

Query :: # get_value(readout='inhibition', item= CC(=O)OC[C@@]1(C)CCC[C@@]2(C)C1CC[C@@]1(C)c3cc[n+](CC(=O)O)cc3CCC21 (some centres not stated) [SPONGIDINE B] )
Result :: 34.6

Query :: Fill blank: measured inhibition of the compound C[C@]1(CO)CCC[C@]2(C)[C@H]3CC[C@@H]4C(O)O[C@@H](C5=CC(=O)OC5O)C[C@H]4[C@]3(C)CC[C@H]12 (some centres not stated) [PETROSASPONGIOLIDE P] is ____.
Result :: 87.2

Query :: I would be grateful if you could share the reported inhibition for CC1(C)CCC[C@@]2(C)C1CC[C@@]1(C)c3cc(CCC(=O)O)[n+](CC(=O)O)cc3CCC21.[Cl-] (some centres not stated) [SPONGIDINE C] .
Result :: 40.4

Query :: Field request: inhibition | item: CC1=C(CC/C(C)=C/CCC2=CC[C@H](C3=CC(=O)OC3O)O[C@@H]2O)C(C)(C)CCC1 (some centres not stated) [MANOLIDE]
Result :: 93.2

Query :: // query inhibition value for entry CC1(C)CCC[C@@]2(C)C1CC[C@@]1(C)c3cc[n+](CC(=O)O)cc3CCC21.[Cl-] (some centres not stated) [SPONGIDINE A]
Result :: 40.1

Query :: What value of inhibition has been recorded for this entry: CC1(C)CCC[C@@]2(C)C1CC[C@@]1(C)c3cc[n+](CCS(=O)(=O)O)cc3CCC21 (some centres not stated) [SPONGIDINE D]
Result :: 48.2

Query :: State the recorded inhibition for this entry: C[C@]1(CO)CCC[C@]2(C)[C@H]3CC[C@@H]4C=C(CC(=O)O)C(=O)C[C@H]4[C@]3(C)CC[C@H]12 [PETROSASPONGIOLIDE K]
Result :: 34.4
